B1: HDV Ribozyme (parent)
chain: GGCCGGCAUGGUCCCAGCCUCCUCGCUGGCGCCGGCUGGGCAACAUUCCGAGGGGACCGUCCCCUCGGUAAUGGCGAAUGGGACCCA

Variants of: B1
Assay: self-cleavage, relative activity (ratio to wild type); higher = more cleavage; co-transcriptional
Decide by self-cleavage: equal to or exceeding 0.2 means YES, less means NO.

Answered cases to consult:
{"sequence-variant": "G25A G35C", "class-label": "NO"}
{"sequence-variant": "C7G C64A", "class-label": "NO"}
{"sequence-variant": "C3G G39C", "class-label": "NO"}
{"sequence-variant": "C21U C30U", "class-label": "NO"}
{"sequence-variant": "G2A A43U", "class-label": "NO"}
{"sequence-variant": "G17A G59U", "class-label": "YES"}
{"sequence-variant": "C32U C62A", "class-label": "YES"}
{"sequence-variant": "A8U G73C", "class-label": "NO"}
{"sequence-variant": "G5A G28U", "class-label": "NO"}
{"sequence-variant": "G50A C66A", "class-label": "YES"}

Now consider a different variant.
Query block: Does self-cleavage meet or surpass 0.2 for C4G C15U ?
Result block: YES
